List of pIC50 values.
Biological target: GPR6 (Homo sapiens)
Construct: expressed in transfected cells; host or cells: CHO cells
Test: GPR6 antagonist functional cAMP assay (LANCE Ultra cAMP TR-FRET, CHO cells stably expressing GPR6)
Assay type: cell-based
Settings: CHO cells stably expressing GPR6, cAMP assay (Example 24)
pIC50: −log10 of the molar value.
measurement label: pIC50

• C[C@H](O)[C@H](O)c1cc2nc(N3CCC(Oc4ccc(F)cc4F)CC3)c(-c3cnn(C)c3)nc2cn1 (single isomer, unassigned) = 6.00 to 7.00
• O=C(CO)N1CCc2nc(N3CCC(Oc4ccc(F)cc4F)CC3)c(-c3cn[nH]c3)nc2C1 = > 7.00
• CC(=O)N1CCc2nc(N3CCC(Oc4ccc(F)cc4F)CC3)c(-c3cnn4c3COCC4)nc2C1 = 6.00 to 7.00
• CC(=O)N1CCc2nc(N3CCC(Oc4ccc(F)cc4F)CC3)c(-c3ccnc(Cl)n3)nc2C1 = 4.52 to 6.00
• CC(=O)N1CCc2nc(N3CCN(Cc4ccc(C(F)(F)F)cc4)CC3)c(-c3cnn(C)c3)nc2C1 = 4.52 to 6.00
• COc1cnnc(-c2nc3c(nc2N2CCC(Oc4ccc(F)cc4F)CC2)CCN(C(C)=O)C3)c1 = 4.52 to 6.00
• CC(=O)N1CCc2nc(N3CCC(Oc4ccc(F)cc4F)CC3)c(-c3cnn4c3CN(C)CC4)nc2C1 = 4.52 to 6.00
• CC(=O)N1CCc2nc(N3CCC(Oc4ccc(F)cc4F)CC3)c(-c3cn[nH]c3F)nc2C1 = 6.00 to 7.00
• Cn1cc(-c2nc3cnc(C(O)CO)cc3nc2N2CCC(Oc3ccc(F)cc3F)CC2)cn1 (stereo not shown) = 4.52 to 6.00
• COc1cccc(-c2nc3c(nc2N2CCN(Cc4cc(Cl)ccc4Cl)CC2)CCN(C(C)=O)C3)n1 = > 7.00
• CC(=O)N1CCc2nc(N3CCC(C(=O)N4CCN(C)C(=O)C4)C3)c(-c3cnn(C)c3)nc2C1 (stereo not shown) = 4.52 to 6.00
• Cn1cc(-c2nc3cnccc3nc2N2CCN(C(=O)c3ccc(F)cc3F)CC2)cn1 = 4.52 to 6.00
• CC(=O)N1CCc2nc(N3CCC(Oc4ccc(F)cc4F)CC3)c(-c3cncc(O)c3)nc2C1 = 4.52 to 6.00

###

Below, each of the molecules is paired with its reported IC50 value.
Biological target: GPR6 (Homo sapiens)
Construct: expressed in transfected cells; host or cells: CHO cells
Experiment: GPR6 antagonist functional cAMP assay (LANCE Ultra cAMP TR-FRET, CHO cells stably expressing GPR6)
Type: cell-based
Details: CHO cells stably expressing GPR6, cAMP assay (Example 24)
measurement label: IC50

- Cn1cc(-c2nc3cnc(N)cc3nc2N2CCC(Oc3cc(Cl)ccc3Cl)CC2)cn1 [Compound 443]: 1000 to 30000 nM
- CNc1cccc(-c2nc3c(nc2N2CCC(Oc4ccc(F)cc4F)CC2)CCN(C(C)=O)C3)n1 [Compound 117]: 100 to 1000 nM
- O=C(N1CCOCC1)N1CCc2nc(N3CCC(Oc4ccc(F)cc4F)CC3)c(-c3cn[nH]c3)nc2C1 [Compound 120]: 100 to 1000 nM
- Cn1cc(-c2nc3c(C#N)nccc3nc2N2CCC(Oc3ccc(F)cc3F)CC2)cn1 [Compound 409]: 100 to 1000 nM
- O=S(=O)(C1COC1)N1CCc2nc(N3CCC(Oc4ccc(F)cc4F)CC3)c(-c3cn[nH]c3)nc2C1 [Compound 207]: 1000 to 30000 nM
- CC(=O)N1CCc2nc(N3CCC(Oc4c(F)cccc4F)CC3)c(-c3cnn(C)c3)nc2C1 [Compound 454]: 1000 to 30000 nM
- CC(=O)N1CCc2nc(N3CCC(Oc4ccc(F)cc4F)CC3)c(-c3cnn(CC(C)C)c3)nc2C1 [Compound 195]: 100 to 1000 nM
- CC(=O)N1CCc2nc(N3CCC(C(=O)NCc4ccc(F)cc4F)C3)c(-c3cnn(C)c3)nc2C1 (stereo not shown) [Compound 386]: ≥ 30000 nM
- CC(=O)N1CCC=C(c2nc3c(nc2N2CCC(Oc4ccc(F)cc4F)CC2)CCN(C(C)=O)C3)C1 [Compound 71]: 1000 to 30000 nM
- Cn1cc(-c2nc3cnc(CC(C)(C)O)cc3nc2N2CCC(Oc3ccc(F)cc3F)CC2)cn1 [Compound 461]: 100 to 1000 nM

###

# pIC50 per entry
Target: GPR6 (Homo sapiens)
Construct: expressed in transfected cells; host or cells: CHO cells
Assay: GPR6 antagonist functional cAMP assay (LANCE Ultra cAMP TR-FRET, CHO cells stably expressing GPR6)
Format: cell-based
Details: CHO cells stably expressing GPR6, cAMP assay
pIC50: −log10 of the molar value.
measurement label: pIC50

* Cn1cc(-c2nc3cnc([C@H](O)C(C)(C)O)cc3nc2N2CCN(Cc3ccc(F)cc3F)CC2)cn1 (single isomer, unassigned) | > 7.00
* Cn1cc(-c2nc3cc(C(C)(O)C(C)(C)O)ncc3nc2N2CCN(Cc3ccc(F)cc3F)CC2)cn1 (stereo not drawn) | 6.00 to 7.00
* CC(=O)N1CCc2nc(N3CCN(Cc4cn[nH]c4)CC3)c(-c3cnn(C)c3)nc2C1 | ≤ 4.52
* CC(=O)N1CCc2nc(N3CCN(Cc4cccn(C)c4=O)CC3)c(-c3cnn(C)c3)nc2C1 | ≤ 4.52
* COC1CCC(c2nc3c(nc2N2CCC(Oc4ccc(F)cc4F)CC2)CCN(C(=O)CO)C3)CC1 (stereo not drawn) | 4.52 to 6.00
* CCn1cc(-c2nc3cc(C(O)C(C)(C)O)ncc3nc2N2CCC(Oc3ccc(F)cc3F)CC2)cn1 (single isomer, unassigned) [Compound 588] | > 7.00
* CC(C)(O)C(O)c1cc2nc(-c3cnn(C4CC4)c3)c(N3CCN(Cc4ccc(F)cc4F)CC3)nc2cn1 (single isomer, unassigned) [Compound 601] | 6.00 to 7.00
* CC(=O)N1CCc2nc(N3CCN(Cc4ccc[nH]c4=O)CC3)c(-c3cnn(C)c3)nc2C1 | ≤ 4.52
* CC(=O)N1CCc2nc(N3CCN(Cc4cccc(C#N)c4)CC3)c(-c3cnn(C)c3)nc2C1 | 4.52 to 6.00

###

Molecular target: GPR6 (Homo sapiens, UniProt P46095)
Construct: expressed in transfected cells; host or cells: CHO cells
Sequence (P46095 whole entry): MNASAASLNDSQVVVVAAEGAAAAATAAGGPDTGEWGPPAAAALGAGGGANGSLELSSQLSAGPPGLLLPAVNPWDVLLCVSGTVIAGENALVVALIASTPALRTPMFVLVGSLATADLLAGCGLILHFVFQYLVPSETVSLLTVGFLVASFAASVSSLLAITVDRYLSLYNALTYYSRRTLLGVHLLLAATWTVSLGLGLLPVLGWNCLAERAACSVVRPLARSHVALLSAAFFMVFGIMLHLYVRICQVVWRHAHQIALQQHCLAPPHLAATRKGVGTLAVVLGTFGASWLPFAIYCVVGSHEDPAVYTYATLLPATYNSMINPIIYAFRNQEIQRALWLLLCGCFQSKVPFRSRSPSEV
Assay: GPR6 antagonist functional cAMP assay (LANCE Ultra cAMP TR-FRET, CHO cells stably expressing GPR6)
Format: cell-based
Conditions: CHO cells stably expressing GPR6, cAMP assay
measurement label: IC50

• CC(C)(O)C(=O)c1cc2nc(N3CCN(Cc4ccc(F)cc4F)CC3)c(-c3cnn(CF)c3)nc2cn1 [Compound 568] = 100 to 1000 nM
• Cn1cc(-c2nc3cnc([C@](C)(O)CO)cc3nc2N2CCC(Oc3ccc(F)cc3F)CC2)cn1 (single isomer, unassigned) [Compound 565] = 1000 to 30000 nM
• COCC(C)(O)c1cc2nc(N3CCC(Oc4ccc(F)cc4F)CC3)c(-c3cnn(C)c3)nc2cn1 (stereo not shown) [Compound 567] = 100 to 1000 nM
• CC(C)(O)[C@H](O)c1cc2nc(N3CCN(Cc4ccc(F)cc4F)CC3)c(-c3cnn(C4CC4)c3)nc2cn1 (single isomer, unassigned) [Compound 576] = 100 to 1000 nM
• CCn1cc(-c2nc3cnc([C@@H](O)C(C)(C)O)cc3nc2N2CCC(Oc3ccc(F)cc3F)CC2)cn1 (single isomer, unassigned) [Compound 570] = < 100 nM
• CC(=O)N1CCc2nc(N3CCC(Oc4ccc(F)cc4F)CC3)c(/C=C3/CCOC3)nc2C1 [Compound 494] = 100 to 1000 nM
• CC(C)(O)C(O)c1cc2nc(-c3cnn(C(F)F)c3)c(N3CCN(Cc4ccc(F)cc4F)CC3)nc2cn1 (single isomer, unassigned) [Compound 585] = < 100 nM

###

IC50 overview
Molecular target: GPR6 (Homo sapiens, UniProt P46095)
Construct: expressed in transfected cells; host or cells: CHO cells
Experiment: GPR6 antagonist functional cAMP assay (LANCE Ultra cAMP TR-FRET, CHO cells stably expressing GPR6)
Format: cell-based
Conditions: CHO cells stably expressing GPR6, cAMP assay
Experimental: Example 56. GPR6 and GPR3 Antagonist Functional cAMP Assay CHO cells stably expressing GPR6 or GPR3 receptors were dissociated from cell culture flasks and incubated for 2 h at 37° C. in a 10 cm dish in a humidified incubator. […] To measure cAMP levels, LANCE® Ultra cAMP assay (Perkin Elmer), a homogeneous time-resolved fluorescence resonance energy transfer (TR-FRET) immunoassay was used following manufacturer's recommendations. […] FRET values were reported as readings obtained at 665 nm. […]
measurement label: IC50

- CC(=O)N1CCc2nc(N3CCC(Oc4ccc(C#N)cc4F)CC3)c(-c3cnn(C)c3)nc2C1 [Compound 500]: 1 to 30 µM
- CC(C)(O)C(O)c1cc2nc(-c3cnn(C4CC4)c3)c(N3CCC(Oc4ccc(F)cc4F)CC3)nc2cn1 (single isomer, unassigned) [Compound 590]: < 0.1 µM
- CC(=O)N1CCc2nc(N3CCN(Cc4cccc(=O)n4C)CC3)c(-c3cnn(C)c3)nc2C1 [Compound 533]: ≥ 30 µM

Recorded values, source patent US20260042755A1.
